Numbers sourced from patent US20240400654A1.

systemName: HRgpA-6H (Porphyromonas gingivalis) (UniProt P28784)
assayInfo: SPR Biacore 8K; table lists HRgpA-6H as ligand, antibody as analyte
Each record here notes measured koff.
Please state the figure in s⁻¹; there is no need to write the unit.

Example cases with answers are listed next.
{"columns": ["binder", "measurement"],
 "data": [
  ["H7 K222A (antibody, V domains shown) VH: QVQLQESGPGLVKPSETLSLTCTVSGFSLSIYSVHWIRQPPGKGLEWIGMIWGGGSSDYNSALKSRLTISKDTSKNQVSLKLSSVTAADTAVYYCARNGNFYAMDYWGQGTLVTVSS VL: EIVLTQSPGTLSLSPGERATLSCTASSSVSSSFLHWYQQKPGQAPQLWIYSTSNLASGIPDRFSGSGSGTDYTLTISRLEPEDFATYYCHQYHHSPYIYTFGGGTKLEIK", "4.36e-05"],
  ["H5 K222A (antibody, V domains shown) VH: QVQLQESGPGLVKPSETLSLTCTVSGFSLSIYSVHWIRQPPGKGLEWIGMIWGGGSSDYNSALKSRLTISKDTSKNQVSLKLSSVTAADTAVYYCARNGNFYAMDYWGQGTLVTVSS VL: EIVLTQSPGTLSLSPGERATLSCTASSSVSSSFLHWYQQKPGQAPRLLIYSTSNLASGIPDRFSGSGSGTDFTLTISRLEPEDFAVYYCHQYHHSPYIYTFGGGTKLEIK", "3.42e-06"]
]}

--- query ---
koff recorded for this binder, H8 K222A (antibody, V domains shown) VH: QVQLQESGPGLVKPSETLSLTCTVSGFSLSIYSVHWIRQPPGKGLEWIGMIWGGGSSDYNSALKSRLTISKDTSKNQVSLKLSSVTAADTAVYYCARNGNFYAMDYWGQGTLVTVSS VL: EIVLTQSPGTLSLSPGERATLSCTASSSVSSSFLHWYQQKPGQAPQLWIYSTSNLASGIPARFSGSGSGTDYTLTISRLEPEDFATYYCHQYHHSPYIYTFGGGTKLEIK , is 3.3e-05
